Tested on: T-cell
experimentalDetails: IL-2 secretion from T-cells co-stimulated with anti-CD3 and anti-CD28 antibody (Biological Example 2)
Assay type: cell-based, human
measurementConditions: Homo sapiens, T-cell, fold change over baseline; 4 μM Cbl-b inhibitor; primary human total T-cells; read-out: IL-2 secretion Anti-CD3/Anti-CD28 stimulation
For each of the compounds below, state its fold induction at 4 µM.

fold induction at 4 µM in this record for C[C@H](Cc1nncn1C)c1cccc(NC(=O)c2cc(C(F)(F)F)n[nH]2)c1 : 1.01 to 2.5

fold induction at 4 µM in this record for C[C@H](Cc1nncn1C)c1cccc(NC(=O)c2cc(C(C)(C)O)cc(C(F)(F)F)n2)c1 : 5 to 7.5

fold induction at 4 µM in this record for C[C@H](Cc1nncn1C)c1cccc(NC(=O)c2cc(C(=O)N3C[C@@H](O)[C@H](F)C3)ccn2)c1 : 2.51 to 5

fold induction at 4 µM in this record for CC(=O)N1CCN(c2ccc3cnc(C(=O)Nc4cccc([C@H](C)Cc5nncn5C)c4)cc3c2)CC1 [Compound 211, 2,2,2-trifluoroacetate] : > 7.5

fold induction at 4 µM in this record for Cc1cc(C(=O)Nc2cccc([C@H](C)Cc3nncs3)c2)nc(C2CC2)n1 : 5 to 7.5

fold induction at 4 µM in this record for Cn1cnnc1CC1(c2cccc(N3Cc4c(cccc4C(F)(F)F)C3=O)c2)COC1 : > 7.5

fold induction at 4 µM in this record for Cn1cnnc1CC(c1cccc(N2Cc3c(cccc3C(F)(F)F)C2=O)c1)C(F)(F)F (stereo not shown) : 1.01 to 2.5

fold induction at 4 µM in this record for C[C@H](Cc1nncn1C)c1cccc(NC(=O)c2cc(C3CC3)nc(C3CC3)n2)c1 : > 7.5

fold induction at 4 µM in this record for Cc1nc(C(=O)Nc2cccc([C@H](C)Sc3nncn3C)c2)ccc1Cl : > 7.5

fold induction at 4 µM in this record for Cc1conc1C[C@@H](C)c1cccc(NC(=O)c2ccnc(C(F)(F)F)n2)c1 [Compound 213a] : 2.51 to 5

fold induction at 4 µM in this record for CC(Sc1nncn1C)c1cccc(NC(=O)c2ccc3ccccc3n2)c1 (stereo not shown) : 2.51 to 5

fold induction at 4 µM in this record for Cc1cc(C(=O)Nc2cccc([C@H](C)Cc3nocc3C)c2)nc(C2CC2)n1 : 5 to 7.5

fold induction at 4 µM in this record for C[C@H](Sc1nncn1C)c1ccnc(NC(=O)c2cc(Cl)cc(C(F)(F)F)n2)c1 : < 1

fold induction at 4 µM in this record for C[C@H](Sc1nncn1C)c1cccc(NC(=O)c2ccc(F)c(C3CC3)n2)c1 : > 7.5

fold induction at 4 µM in this record for Cc1cc(C)nc(C(=O)Nc2cccc([C@H](C)Sc3nncn3C)c2)c1 : > 7.5

fold induction at 4 µM in this record for Cc1ccc(C(=O)Nc2cccc(C(C)C(F)(F)c3nncn3C)c2)nc1C1CC1 (stereo not shown) : 2.51 to 5

---

# Cbl-b (residues 36-427) (Homo sapiens): Kd values follow
# Sequence (Q13191 36-427): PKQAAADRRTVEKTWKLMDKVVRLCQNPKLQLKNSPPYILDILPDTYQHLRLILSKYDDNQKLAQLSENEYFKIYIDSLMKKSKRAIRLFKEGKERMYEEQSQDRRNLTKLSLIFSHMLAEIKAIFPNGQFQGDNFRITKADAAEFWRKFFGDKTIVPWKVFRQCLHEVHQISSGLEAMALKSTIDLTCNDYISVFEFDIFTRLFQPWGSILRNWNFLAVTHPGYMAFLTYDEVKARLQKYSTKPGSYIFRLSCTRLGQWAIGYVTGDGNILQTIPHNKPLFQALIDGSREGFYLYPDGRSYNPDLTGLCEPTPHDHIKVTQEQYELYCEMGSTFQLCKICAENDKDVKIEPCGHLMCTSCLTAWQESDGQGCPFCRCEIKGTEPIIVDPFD

Kd in this record for C[C@H](Cc1nncn1C)c1cccc(NC(=O)c2nc3c(C4CC4)cccc3[nH]2)c1 [Compound 319] : 100 to 300 nM

Kd in this record for CCOc1cccc(C(=O)Nc2cccc([C@H](C)Sc3nncn3C)c2)n1 [Compound 90] : 3000 to 10000 nM

Kd in this record for C[C@H](Sc1nncn1C)c1cccc(NC(=O)c2ccc(Cl)c(C(F)(F)F)n2)c1 [Compound 51] : 301 to 1000 nM

Kd in this record for C[C@H](CO)Nc1cc([C@H](C)Cc2nncn2C)cc(N2Cc3c(cccc3C(F)(F)F)C2=O)n1 [Compound 366] : 100 to 300 nM

Cited source for all entries: patent US20220324835A1
